test system: CP315; assay: qHTS profiling for inhibitors of Plasmodium falciparum proliferation (AID 504749); also: nearly all actives have a fitted effect of over 60% in size; settings: P. falciparum in erythrocytes, SYBR Green DNA, 72 h; series mostly up to 28.7 µM
Records with an inconclusive call do not appear. Active and inactive are the calls of the source. Calls follow the shape of the dose curve; as a rule, active = well fitted inhibition curve with a large enough effect; inconclusive = small, poorly fitted or top-dose-only effect; inactive = flat fitted curve, though single readings scatter.
Pick one and only one: yes (active), no (inactive)

Example cases with answers are listed next.
Molecule	Subject of test	Qualitative label
NC(=O)NC(CCC(=O)O)C(=O)O (stereo not drawn)	CP315	no
C=NC(C(=O)NC1C(=O)N2C1SC(C)(C)C2C(=O)O)c1ccccc1 (stereo not drawn)	CP315	no
CCCCC(=O)OC1CCC2C3CCc4cc(O)ccc4C3CC[C@]12C (stereo partly drawn)	CP315	no
CC[C@@H]1/C=C(\C)C[C@H](C)C[C@H](OC)[C@H]2O[C@@](O)(C(=O)C(=O)N3CCCC[C@H]3C(=O)O[C@H](/C(C)=C/[C@@H]3CC[C@H](Cl)[C@H](OC)C3)[C@H](C)[C@@H](O)CC1=O)[C@H](C)C[C@@H]2OC	CP315	no

Switching to the query record.
Req: What did this assay record as the result for C[C@]12CC[C@@H]3c4ccc(O)cc4CC[C@H]3[C@@H]1CCC2OC(=O)CCC1CCCC1 (stereo partly drawn) ?
Resp: no
